System: rat trachea rings
experimentalDetails: Tracheal relaxation assay (carbachol precontracted rings);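 note: isometric tension of rat tracheal rings in Krebs buffer with 1 µM indomethacin, compounds added cumulatively at 30 min intervals, basal tension subtracted, fit to Hill equation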
conditionInfo: average percentage of carbachol-induced rat tracheal ring contraction at 1 μM of test compound

compoundSmiles: CSc1ccc(CN2CCC[C@H](Nc3ccc4[nH]ncc4c3)C2)cc1
measuredTarget: rat trachea rings
Trachael Ring Contraction, %, %: 39
//
compoundSmiles: CS(=O)(=O)Nc1cc(CN2CCC[C@H](Nc3ccc4[nH]ncc4c3)C2)ccc1Cl
measuredTarget: rat trachea rings
Trachael Ring Contraction, %, %: 29
//
compoundSmiles: CCS(=O)(=O)Nc1cccc(CN2CCC[C@H](Nc3ccc4[nH]ncc4c3)C2)c1
measuredTarget: rat trachea rings
Trachael Ring Contraction, %, %: 38
//
compoundSmiles: Clc1ccc(CN2CCC[C@H](Nc3ccc4[nH]ncc4c3)C2)cc1
measuredTarget: rat trachea rings
Trachael Ring Contraction, %, %: 35
//
compoundSmiles: CS(=O)(=O)Nc1cccc(CN2CCC[C@H](Nc3ccc4[nH]ncc4c3)C2)c1
measuredTarget: rat trachea rings
Trachael Ring Contraction, %, %: 35
//
compoundSmiles: c1cc2cc(CN3CCC[C@H](Nc4ccc5[nH]ncc5c4)C3)ccc2[nH]1
measuredTarget: rat trachea rings
Trachael Ring Contraction, %, %: 34
//
compoundSmiles: Oc1cccc(CN2CCC[C@H](Nc3ccc4[nH]ncc4c3)C2)c1
measuredTarget: rat trachea rings
Trachael Ring Contraction, %, %: 35
//
compoundSmiles: Cc1ccc(CN2CCC[C@H](Nc3ccc4[nH]ncc4c3)C2)cc1OCCO
measuredTarget: rat trachea rings
Trachael Ring Contraction, %, %: 34
//
compoundSmiles: CS(=O)(=O)Nc1cc(CN2CCC[C@@H](Nc3ccc4[nH]ncc4c3)C2)ccc1Cl
measuredTarget: rat trachea rings
Trachael Ring Contraction, %, %: 40
//
compoundSmiles: NC(=O)Cn1ccc2cc(CN3CCC[C@@H](Nc4ccc5[nH]ncc5c4)C3)ccc21
measuredTarget: rat trachea rings
Trachael Ring Contraction, %, %: 34
//
compoundSmiles: NS(=O)(=O)c1cccc(CN2CCC[C@H](Nc3ccc4[nH]ncc4c3)C2)c1
measuredTarget: rat trachea rings
Trachael Ring Contraction, %, %: 41
//
compoundSmiles: c1cc2cc(CN3CCC[C@@H](Nc4ccc5[nH]ncc5c4)C3)ccc2o1
measuredTarget: rat trachea rings
Trachael Ring Contraction, %, %: 37
//
compoundSmiles: c1cc2ccc(CN3CCC[C@H](Nc4ccc5[nH]ncc5c4)C3)cc2[nH]1
measuredTarget: rat trachea rings
Trachael Ring Contraction, %, %: 51
//
compoundSmiles: CC(=O)NCc1cccc(CN2CCC[C@H](Nc3ccc4[nH]ncc4c3)C2)c1
measuredTarget: rat trachea rings
Trachael Ring Contraction, %, %: 42
//
compoundSmiles: Cc1ccc(CN2CCC[C@@H](Nc3ccc4[nH]ncc4c3)C2)cc1OCCO
measuredTarget: rat trachea rings
Trachael Ring Contraction, %, %: 40
//
compoundSmiles: CCOC(=O)COc1cccc(CN2CCC[C@H](Nc3ccc4[nH]ncc4c3)C2)c1
measuredTarget: rat trachea rings
Trachael Ring Contraction, %, %: 92
//
compoundSmiles: CCS(=O)(=O)Nc1cccc(CN2CCC[C@@H](Nc3ccc4[nH]ncc4c3)C2)c1
measuredTarget: rat trachea rings
Trachael Ring Contraction, %, %: 47

----------
measuredTarget: ERK2 (Homo sapiens, UniProt P28482)
Construct: purchased Upstate, Millipore Bioscience Division (KinaseProfiler service)
Sequence (P28482 whole entry): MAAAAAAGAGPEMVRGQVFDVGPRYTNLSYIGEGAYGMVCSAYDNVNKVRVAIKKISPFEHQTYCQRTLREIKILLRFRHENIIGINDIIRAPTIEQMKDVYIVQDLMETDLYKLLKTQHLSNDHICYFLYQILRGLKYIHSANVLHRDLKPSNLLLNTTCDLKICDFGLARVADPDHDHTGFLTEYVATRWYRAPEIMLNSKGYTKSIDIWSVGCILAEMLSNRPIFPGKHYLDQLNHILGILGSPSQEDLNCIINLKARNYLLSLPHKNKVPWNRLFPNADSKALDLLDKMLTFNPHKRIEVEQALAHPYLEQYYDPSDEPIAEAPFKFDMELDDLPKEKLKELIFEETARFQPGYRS
experimentalDetails: Kinase panel screen (KinaseProfiler), ERK2
Assay type: biochemical
conditionInfo: 10 μM test compound, 10 μM ATP
Item-by-item account of Percent inhibition, ERK2

compound: OCCn1ccc2cc(CN3CC[C@@H](Nc4cccc5cnccc45)C3)ccc21 [Compound 2.066]
resultUnit: %
Percent inhibition, ERK2: 12

compound: NC(=O)Cn1ccc2cc(CN3CCC[C@@H](Nc4ccc5[nH]ncc5c4)C3)ccc21 [Compound 1.162]
resultUnit: %
Percent inhibition, ERK2: 60

compound: NC(=O)Cn1ccc2cc(CN3CC[C@@H](Nc4cccc5cnccc45)C3)ccc21 [Compound 2.059]
resultUnit: %
Percent inhibition, ERK2: 12

compound: Cc1ccc(CN2CCC[C@@H](Nc3ccc4[nH]ncc4c3)C2)cc1OCCO [Compound 1.161]
resultUnit: %
Percent inhibition, ERK2: 92
